ASSAYED_TARGET: ROR1 (antigen of the KD determination and of the Octet dissociation measurement) (UniProt Q01973 30-403, limits assumed)
Sequence (Q01973 30-403 limits assumed): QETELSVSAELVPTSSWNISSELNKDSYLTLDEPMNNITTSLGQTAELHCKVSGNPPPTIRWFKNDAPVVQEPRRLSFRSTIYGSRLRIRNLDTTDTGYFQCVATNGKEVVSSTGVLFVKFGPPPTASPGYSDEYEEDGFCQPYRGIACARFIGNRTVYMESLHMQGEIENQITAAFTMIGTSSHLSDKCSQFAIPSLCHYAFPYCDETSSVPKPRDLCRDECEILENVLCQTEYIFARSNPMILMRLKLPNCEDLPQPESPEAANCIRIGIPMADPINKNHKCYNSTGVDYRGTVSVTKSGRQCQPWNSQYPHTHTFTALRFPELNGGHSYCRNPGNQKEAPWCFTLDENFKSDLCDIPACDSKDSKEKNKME
MEASUREMENT_DESCRIPTION: method not stated (conventional procedures)
QUANTITY_NAME: koff (s⁻¹)
Write the number in s⁻¹ without appending the unit.

INSERT INTO results (binder, value_units, result_value) VALUES
  ('PR001371 (antibody, human IgG1, kappa, V domains shown, fully human IgG1, kappa) VH: QVQLVESGGGVVQPGRSLRLSCAASGFTFSSYGMLWVRQAPGKGLEWVAVAWYDGVSEDYADSVKGRFTISRDNSMNTLSLQMNSLRAEDTAVYYCAREQARSFDLWGRGTLVTVSS VL: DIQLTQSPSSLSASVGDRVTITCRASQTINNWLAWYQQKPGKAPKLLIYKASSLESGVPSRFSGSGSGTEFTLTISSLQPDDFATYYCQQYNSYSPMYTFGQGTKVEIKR', 's⁻¹', 0.000525);

Kindly review the next binder as well.
Ask: Quick one: koff for PR001416 (antibody, human IgG1, kappa, V domains shown, fully human IgG1, kappa) VH: QVQLVESGGGVVQPGRSLRLSCAASGFTFSTYGMHWVRQAPGKGLEWVAVIWYDGSDKDYADSVKGRFTISRDTSKNTLYLQMNSLRAEDTAVYYCAREQARSFDLWGRGTLVTVSS VL: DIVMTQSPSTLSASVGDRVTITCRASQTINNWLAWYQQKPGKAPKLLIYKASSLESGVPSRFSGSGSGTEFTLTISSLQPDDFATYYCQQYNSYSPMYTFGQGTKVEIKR ?
Result: 0.000342
